Measured values drawn from patent US11130733B2 for this set.

procedure-text: Pharmacokinetic evaluation, plasma and brain concentrations
Format: in vivo, ICR mice
condition: male, ICR, mouse, brain, iv, 1 mg/kg, IV 1 mg/kg, 0.083 hr; read-out: Brain tissue concentration, Mean
measured-attribute: concentration at 0.083 h (ng/g)
Write the number in ng/g without appending the unit.

Reported concentration at 0.083 h for O=C1C=C(OCc2ccc(F)cc2)[C@H](Cc2ccccc2)N1 [Compound 50561] was 738

====

procedure-text: Pharmacokinetic evaluation, plasma and brain concentrations
Format: in vivo, ICR mice
condition: male, ICR, mouse, plasma, po, 10 mg/kg, PO 10 mg/kg, 2 hr; read-out: Blood concentration, Mean
measured-attribute: concentration at 2 h (ng/mL)
Write the number in ng/mL without appending the unit.

Reported concentration at 2 h for O=C1C=C(OCc2ccc(F)cc2)[C@H](Cc2ccccc2)N1 was 144

====

procedure-text: Pharmacokinetic evaluation, plasma and brain concentrations
Type: in vivo, ICR mice
condition: male, ICR, mouse, brain, po, 10 mg/kg, PO 10 mg/kg, 8 hr; read-out: Brain tissue concentration, Mean
measured-attribute: concentration at 8 h (ng/g)
Write the number in ng/g without appending the unit.

Reported concentration at 8 h for O=C1C=C(OCc2ccc(F)cc2)[C@H](Cc2ccccc2)N1 was 8.5

====

procedure-text: Pharmacokinetic evaluation, plasma and brain concentrations
Assay type: in vivo, ICR mice
condition: male, ICR, mouse, plasma, po, 10 mg/kg, PO 10 mg/kg, 4 hr; read-out: Blood concentration, Mean
measured-attribute: concentration at 4 h (ng/mL)
Write the number in ng/mL without appending the unit.

Reported concentration at 4 h for O=C1C=C(OCc2ccc(F)cc2)[C@H](Cc2ccccc2)N1 was 18.9

====

procedure-text: Pharmacokinetic evaluation, plasma and brain concentrations
Format: in vivo, ICR mice
condition: male, ICR, mouse, plasma, po, 10 mg/kg, PO 10 mg/kg, 1 hr; read-out: Blood concentration, individual mice
Procedure: Distribution of a medicament in the body is one of the important indicators to determine the dose and efficacy of the medicament. Thus, excellent candidate compounds should have good pharmacokinetic characteristics. […] In this experiment, compound 50561 was administered to mice […] or by gavage, and the concentrations of the compound in blood and brain were measured at specific time points to determine the pharmacokinetic parameters. […]
measured-attribute: concentration at 1 h
Respond with a number, then the unit of measure.

Reported concentration at 1 h for O=C1C=C(OCc2ccc(F)cc2)[C@H](Cc2ccccc2)N1 was 365 ng/mL

====

procedure-text: Pharmacokinetic evaluation, plasma and brain concentrations
Format: in vivo, ICR mice
condition: male, ICR, mouse, plasma, po, 10 mg/kg, PO 10 mg/kg, 1 hr; read-out: Blood concentration, Mean
measured-attribute: concentration at 1 h (ng/mL)
Write the number in ng/mL without appending the unit.

Reported concentration at 1 h for O=C1C=C(OCc2ccc(F)cc2)[C@H](Cc2ccccc2)N1 was 499

====

procedure-text: Pharmacokinetic evaluation, plasma and brain concentrations
Type: in vivo, ICR mice
condition: male, ICR, mouse, brain, iv, 1 mg/kg, IV 1 mg/kg, 0.5 hr; read-out: Brain tissue concentration, Mean
measured-attribute: concentration at 0.5 h

Reported concentration at 0.5 h for O=C1C=C(OCc2ccc(F)cc2)[C@H](Cc2ccccc2)N1 was 204 ng/g

====

procedure-text: Pharmacokinetic evaluation, plasma and brain concentrations
Format: in vivo, ICR mice
condition: male, ICR, mouse, brain, po, 10 mg/kg, PO 10 mg/kg, 0.5 hr; read-out: Brain tissue concentration, Mean
measured-attribute: concentration at 0.5 h (ng/g)
Write the number in ng/g without appending the unit.

Reported concentration at 0.5 h for O=C1C=C(OCc2ccc(F)cc2)[C@H](Cc2ccccc2)N1 was 1600
